src = ChEMBL document CHEMBL1165982

Tested on: HEp-2
Assay: Cytotoxicity against human Hep2 cells after 24 hrs by MTT assay
Assay type: functional, cell-based
Settings: HEp-2, 24 h
property-label: IC50
Answer by giving the amount and then stating its unit.

Asked: Which IC50 is reported for this compound? C=C1C(=O)[C@]23[C@H](O)[C@H]1CC[C@H]2[C@@]12CO[C@]3(O)[C@@H](O)[C@@H]1C(C)(C)CC[C@@H]2O
Given back: 37.1 µM
